- Test system: HEK-293T
- Protocol Summary: Multiplex assay against HEK293T
- Assay type: toxicity, cell-based
- Test Context: human, 12 h, 10 µM, compound concentration 10 uM, replicate 1
Measured Population Apoptotic (%) values are reported for all entries that follow.
Respond with the bare value in %.

C=CC(=O)Nc1cccc(Sc2nc(Nc3ccc(N4CCN(C)CC4)cc3)ncc2Cl)c1 :: 21
COc1cc(Nc2nccc(-c3cnn4nc(OC)ccc34)n2)cc(C(F)(F)F)c1 :: 68
Cl.O=C(O)c1cc(-c2ccc(C3CCNCC3)cc2)c2ccc(-c3ccc(C(F)(F)F)cc3)cc2c1 :: 62
Cc1ccc(C)c(Oc2ccncc2C(=O)N2CCN(C3CC3)c3ccccc32)c1 :: 88
CCc1nn(CCCN2CCN(c3cccc(Cl)c3)CC2)c(=O)n1CCOc1ccccc1.Cl [NEFAZODONE HYDROCHLORIDE] :: 90
COC(=O)C1=C(C)NC(C)=C(C(=O)OCCCN2CCC(c3ccccc3)(c3ccccc3)CC2)[C@H]1c1cccc([N+](=O)[O-])c1 [NIGULDIPINE] :: 81

Lab note: HEK-293T assay, enter Population Apoptotic (%) for C=CC(=O)Nc1cccc(Oc2nc(Nc3ccc(N4CCN(C)CC4)cc3OC)ncc2Cl)c1 here
16

Lab note: HEK-293T assay, enter Population Apoptotic (%) for CNC(=O)Nc1ccc2c(c1)[C@@]1(CC2)OC(=O)N(CC(=O)N(Cc2ccc(F)cc2)[C@@H](C)C(F)(F)F)C1=O [A-486] here
14

Lab note: HEK-293T assay, enter Population Apoptotic (%) for CNC(=O)Nc1ccc(-c2nc(N3CC4CCC(C3)O4)c3cnn(C4CCC5(CC4)OCCO5)c3n2)cc1 here
76

Lab note: HEK-293T assay, enter Population Apoptotic (%) for Cc1c[nH]c2nccc(Oc3c(F)cc(Nc4cc(Cl)nc(N)n4)cc3F)c12 [BAY-549] here
45

Lab note: HEK-293T assay, enter Population Apoptotic (%) for C[C@]12CC[C@@H]3c4ccc(O)cc4CC[C@H]3[C@@H]1CC[C@@H]2O [ESTRADIOL] here
42

Lab note: HEK-293T assay, enter Population Apoptotic (%) for O=c1cc(N2CCOCC2)oc2c(-c3cccc4c3sc3ccccc34)cccc12 here
61

Lab note: HEK-293T assay, enter Population Apoptotic (%) for CC(C)c1noc(N2CCC(COc3ccc(-c4ccc(S(C)(=O)=O)cc4)nc3)CC2)n1 [GSK-1292263] here
50

Lab note: HEK-293T assay, enter Population Apoptotic (%) for CC(C)OC(=O)N1CCC(Oc2ncnc3c2cnn3-c2ccc(S(C)(=O)=O)cc2F)CC1 here
53

Lab note: HEK-293T assay, enter Population Apoptotic (%) for C=CC(=O)Nc1ccc2[nH]c(=O)n(C3CCN(Cc4ccc(-c5nc6cc[nH]c(=O)c6cc5-c5ccccc5)cc4)CC3)c2c1 [Borussertib] here
24

Lab note: HEK-293T assay, enter Population Apoptotic (%) for O=C(c1cc2c(cc1F)OC(c1ccc(F)cc1)(c1ccc(Cl)cc1Cl)O2)N1CCOCC1 (stereo not drawn) here
64

Lab note: HEK-293T assay, enter Population Apoptotic (%) for COc1ccc(-c2ccc3ncc4c(c3c2)n(-c2ccc(N3CCNCC3)c(C(F)(F)F)c2)c(=O)n4C)cn1.O=C(O)/C=C\C(=O)O [BGT-226] here
72

Lab note: HEK-293T assay, enter Population Apoptotic (%) for COc1ccccc1CN[C@H]1C2CCN(CC2)[C@H]1C(c1ccccc1)c1ccccc1 [CP-96345] here
79

Lab note: HEK-293T assay, enter Population Apoptotic (%) for COc1cc2ncn(-c3cc(OCc4ccccc4C(F)(F)F)c(C(N)=O)s3)c2cc1OC [GW843682X] here
57

----------
- Test system: U2OS
- Protocol Summary: Multiplex assay against U2OS
- Assay type: toxicity, cell-based
- Test Context: human, 12 h, 1 µM, compound concentration 1 uM, replicate 1
Endpoint Label: Population Hoechst High Intensity Objects (%)
Respond with the bare value in %.

Here's what some known entries look like.
COc1cc2ncn(-c3cc(OCc4ccccc4C(F)(F)F)c(C(N)=O)s3)c2cc1OC [GW843682X] :: 7
COc1ccc(-c2ccc3ncc4c(c3c2)n(-c2ccc(N3CCNCC3)c(C(F)(F)F)c2)c(=O)n4C)cn1.O=C(O)/C=C\C(=O)O [BGT-226] :: 14
CC(C)Oc1ccccc1C(=O)Nc1ccccc1C(=O)Nc1cccc(S(=O)(=O)C(F)(F)F)c1 :: 11

Lab note: U2OS assay, enter Population Hoechst High Intensity Objects (%) for Cc1cc(C)c(-n2ccn3nc(-c4cccnc4)cc23)cc1NC(=O)c1cc(C#N)cc(S(F)(F)(F)(F)F)c1 [BAY-826] here
4

Lab note: U2OS assay, enter Population Hoechst High Intensity Objects (%) for Cc1nc(N2CC[C@H](O)C2)ncc1-c1cc(C(F)(F)F)cc2[nH]ncc12 here
3

Lab note: U2OS assay, enter Population Hoechst High Intensity Objects (%) for CCCSc1nc(N[C@@H]2C[C@H]2c2ccc(F)c(F)c2)c2nnn([C@@H]3C[C@H](OCCO)[C@@H](O)[C@H]3O)c2n1 [TICAGRELOR] here
6

Lab note: U2OS assay, enter Population Hoechst High Intensity Objects (%) for CC(C)(C)NC[C@H](O)COc1nsnc1N1CCOCC1 [TIMOLOL] here
7

Lab note: U2OS assay, enter Population Hoechst High Intensity Objects (%) for CC(C)NC(=O)N1CC[C@H](NC2=Nc3cc(F)ccc3N(CC(F)F)c3ccc(Cl)cc32)C1 here
7

Lab note: U2OS assay, enter Population Hoechst High Intensity Objects (%) for COc1ccccc1CN[C@H]1C2CCN(CC2)[C@H]1C(c1ccccc1)c1ccccc1 [CP-96345] here
11

----------
- Tested on: U2OS
- Protocol Summary: Multiplex assay against U2OS
- Format: toxicity, cell-based
- Test Context: human, 24 h, 1 µM, compound concentration 1 uM, replicate 2
Endpoint Label: Population Fragmented Nuclei (%)
Respond with the bare value in %.

Here's what some known entries look like.
CNC(=O)Nc1ccc(-c2nc(N3CC4CCC(C3)O4)c3cnn(C4CCC5(CC4)OCCO5)c3n2)cc1 :: 19
Cc1ccc(C)c(Oc2ccncc2C(=O)N2CCN(C3CC3)c3ccccc32)c1 :: 27

Lab note: U2OS assay, enter Population Fragmented Nuclei (%) for O=C(c1cc2c(cc1F)OC(c1ccc(F)cc1)(c1ccc(Cl)cc1Cl)O2)N1CCOCC1 (configuration not stated) here
5

Lab note: U2OS assay, enter Population Fragmented Nuclei (%) for Cl.O=C(O)c1cc(-c2ccc(C3CCNCC3)cc2)c2ccc(-c3ccc(C(F)(F)F)cc3)cc2c1 here
11

Lab note: U2OS assay, enter Population Fragmented Nuclei (%) for CC(C)OC(=O)N1CCC(Oc2ncnc3c2cnn3-c2ccc(S(C)(=O)=O)cc2F)CC1 here
4

Lab note: U2OS assay, enter Population Fragmented Nuclei (%) for COc1ccccc1CN[C@H]1C2CCN(CC2)[C@H]1C(c1ccccc1)c1ccccc1 [CP-96345] here
4

Lab note: U2OS assay, enter Population Fragmented Nuclei (%) for COC(=O)C1=C(C)NC(C)=C(C(=O)OCCCN2CCC(c3ccccc3)(c3ccccc3)CC2)[C@H]1c1cccc([N+](=O)[O-])c1 [NIGULDIPINE] here
7

Lab note: U2OS assay, enter Population Fragmented Nuclei (%) for CNC(=O)Nc1ccc2c(c1)[C@@]1(CC2)OC(=O)N(CC(=O)N(Cc2ccc(F)cc2)[C@@H](C)C(F)(F)F)C1=O [A-486] here
7

Lab note: U2OS assay, enter Population Fragmented Nuclei (%) for CC1=C(C(=O)Nc2cc3cn[nH]c3cc2F)C(c2ccc(C(F)(F)F)cc2)CC(=O)N1 (configuration not stated) here
7

Lab note: U2OS assay, enter Population Fragmented Nuclei (%) for CC(C)NC(=O)N1CC[C@H](NC2=Nc3cc(F)ccc3N(CC(F)F)c3ccc(Cl)cc32)C1 here
5

Lab note: U2OS assay, enter Population Fragmented Nuclei (%) for CCc1ccc(OCc2ccccc2C(=O)Nc2ccc3nc(C)cc(N)c3c2)cc1.Cl here
25

Lab note: U2OS assay, enter Population Fragmented Nuclei (%) for C=CC(=O)Nc1ccc2[nH]c(=O)n(C3CCN(Cc4ccc(-c5nc6cc[nH]c(=O)c6cc5-c5ccccc5)cc4)CC3)c2c1 [Borussertib] here
9

Lab note: U2OS assay, enter Population Fragmented Nuclei (%) for CCOC(=O)Nc1cc(-c2ccc(C)c(NS(C)(=O)=O)c2)nn2c(C)nnc12 here
9

----------
- Test system: Fibroblast
- Protocol Summary: Multiplex assay against human fibroblast
- Format: toxicity, cell-based
- Test Context: 48 h, 1 µM, compound concentration 1 uM, replicate 1
Endpoint Label: Population Mitotic Cells (%)
Respond with the bare value in %.

Here's what some known entries look like.
CCCSc1nc(N[C@@H]2C[C@H]2c2ccc(F)c(F)c2)c2nnn([C@@H]3C[C@H](OCCO)[C@@H](O)[C@H]3O)c2n1 [TICAGRELOR] :: 55
CC(C)NC(=O)N1CC[C@H](NC2=Nc3cc(F)ccc3N(CC(F)F)c3ccc(Cl)cc32)C1 :: 47
COC(=O)C1=C(C)NC(C)=C(C(=O)OCCCN2CCC(c3ccccc3)(c3ccccc3)CC2)[C@H]1c1cccc([N+](=O)[O-])c1 [NIGULDIPINE] :: 20
COc1cc2ncn(-c3cc(OCc4ccccc4C(F)(F)F)c(C(N)=O)s3)c2cc1OC [GW843682X] :: 47
Cc1ccc2c(c1)c1c(n2CCc2ccc(C)nc2)CCN(C)C1 [LATREPIRDINE] :: 11

Dear colleague, please send me the reported Population Mitotic Cells (%) for Cc1c[nH]c2nccc(Oc3c(F)cc(Nc4cc(Cl)nc(N)n4)cc3F)c12 [BAY-549] when you can.
33

Dear colleague, please send me the reported Population Mitotic Cells (%) for COc1ccccc1CN[C@H]1C2CCN(CC2)[C@H]1C(c1ccccc1)c1ccccc1 [CP-96345] when you can.
57

Dear colleague, please send me the reported Population Mitotic Cells (%) for O=C(c1cc2c(cc1F)OC(c1ccc(F)cc1)(c1ccc(Cl)cc1Cl)O2)N1CCOCC1 (stereo not drawn) when you can.
57
